test: Selectivity index, ratio of IC50 for cytotoxicity against human HepG2 cells to MIC for antibacterial activity against methicillin-resistant Staphylococcus aureus COL; assay type: toxicity, cell-based; conditions: read-out: Selectivity Index
assay endpoint: selectivity ratio

molecule_smiles=CCCCCCCCSSC(=S)N(CC)CC reported="> 13"

====

tested on: Listeria monocytogenes; test: Antibacterial activity against Listeria monocytogenes Gibson after 20 hrs by broth microdilution assay; type: functional
assay endpoint: MIC (µM)

compound=CCCSSC(=S)N(CC)CC readout_qualifier== reported=16
compound=CCN(CC)C(=S)SSC readout_qualifier== reported=32
compound=CCCCCCCSSC(=S)N(CC)CC readout_qualifier== reported=4
compound="CCCCCCSSC(=S)N(CC)CC [DIETHYLCARBAMO(DITHIOPEROXO)THIOATE]" readout_qualifier== reported=8
compound=CCN(CC)C(=S)SSCc1ccccc1 readout_qualifier== reported=8
compound=CCCCCCCCSSC(=S)N(CC)CC readout_qualifier== reported=4
compound=CCCCCSSC(=S)N(CC)CC readout_qualifier== reported=8
compound=CCN(CC)C(=S)SSC(=S)N(CC)CC readout_qualifier=> reported=32

====

tested on: Staphylococcus epidermidis; test: Antibacterial activity against vancomycin-intermediate resistant Staphylococcus epidermidis NRS6 after 20 hrs by broth microdilution assay; type: functional; conditions: NRS6, 20 h
assay endpoint: MIC (µM)

molecule=CCCCCCCSSC(=S)N(CC)CC assay_endpoint=MIC readout_qualifier== reported=4
molecule=CCN(CC)C(=S)SSCC(C)C assay_endpoint=MIC readout_qualifier=> reported=32
molecule=CCCCCCCCCCSSC(=S)N(CC)CC assay_endpoint=MIC readout_qualifier== reported=16
molecule=CCCCSSC(=S)N(CC)CC assay_endpoint=MIC readout_qualifier== reported=32
molecule=CCCCCCCCCSSC(=S)N(CC)CC assay_endpoint=MIC readout_qualifier== reported=4
molecule=CCN(CC)C(=S)SSCc1ccccc1 assay_endpoint=MIC readout_qualifier== reported=8
molecule=CCN(CC)C(=S)SSC1CCCCC1 assay_endpoint=MIC readout_qualifier== reported=32
molecule=CCN(CC)C(=S)SSC(C)C assay_endpoint=MIC readout_qualifier=> reported=32
molecule=CCCSSC(=S)N(CC)CC assay_endpoint=MIC readout_qualifier== reported=32
molecule="CCCCCCSSC(=S)N(CC)CC [DIETHYLCARBAMO(DITHIOPEROXO)THIOATE]" assay_endpoint=MIC readout_qualifier== reported=8
molecule=CCN(CC)C(=S)SSC1CCCC1 assay_endpoint=MIC readout_qualifier== reported=32
molecule=CCN(CC)C(=S)SSC(=S)N(CC)CC assay_endpoint=MIC readout_qualifier== reported=32
molecule=CCCCCSSC(=S)N(CC)CC assay_endpoint=MIC readout_qualifier== reported=8
molecule=CCN(CC)C(=S)SSC assay_endpoint=MIC readout_qualifier== reported=32
molecule="CN[C@H](CC(C)C)C(=O)N[C@H]1C(=O)N[C@@H](CC(N)=O)C(=O)N[C@H]2C(=O)N[C@H]3C(=O)N[C@H](C(=O)N[C@H](C(=O)O)c4cc(O)cc(O)c4-c4cc3ccc4O)[C@H](O)c3ccc(c(Cl)c3)Oc3cc2cc(c3O[C@@H]2O[C@H](CO)[C@@H](O)[C@H](O)[C@H]2O[C@H]2C[C@](C)(N)[C@H](O)[C@H](C)O2)Oc2ccc(cc2Cl)[C@H]1O [VANCOMYCIN]" assay_endpoint=MIC readout_qualifier== reported=8

====

Here, each record is paired with measured MIC data.
tested on: Staphylococcus aureus; assay: Antibacterial activity against methicillin-resistant Staphylococcus aureus COL after 20 hrs by broth microdilution assay; format: functional
assay endpoint: MIC (µM)

compound=CCCCSSC(=S)N(CC)CC assay_endpoint=MIC readout_qualifier== reported=16
compound="CCCCCCSSC(=S)N(CC)CC [DIETHYLCARBAMO(DITHIOPEROXO)THIOATE]" assay_endpoint=MIC readout_qualifier== reported=16
compound=CCCCCSSC(=S)N(CC)CC assay_endpoint=MIC readout_qualifier== reported=16
compound=CCCCCCCCCSSC(=S)N(CC)CC assay_endpoint=MIC readout_qualifier== reported=8
compound=CCN(CC)C(=S)SSC(C)C assay_endpoint=MIC readout_qualifier=> reported=32
compound=CCN(CC)C(=S)SSC(=S)N(CC)CC assay_endpoint=MIC readout_qualifier== reported=32
compound=CCN(CC)C(=S)SSC1CCCCC1 assay_endpoint=MIC readout_qualifier== reported=32
compound=CCN(CC)C(=S)SSC1CCCC1 assay_endpoint=MIC readout_qualifier== reported=32

====

assay: Selectivity index, ratio of IC50 for cytotoxicity against human HepG2 cells to MIC for antibacterial activity against vancomycin-resistant Staphylococcus aureus HIP14300; format: toxicity, cell-based; conditions: read-out: Selectivity Index
assay endpoint: selectivity ratio

molecule_smiles=CCCCCCCCSSC(=S)N(CC)CC assay_endpoint="selectivity ratio" reported="> 13"

====

system: Enterococcus faecium; assay: Antibacterial activity against vancomycin-resistant Enterococcus faecium ATCC 700221 after 20 hrs by broth microdilution assay; type: functional; settings: ATCC 700221, 20 h
assay endpoint: MIC

compound="CCCCCCSSC(=S)N(CC)CC [DIETHYLCARBAMO(DITHIOPEROXO)THIOATE]" assay_endpoint=MIC reported="> 32 µM"
compound=CCN(CC)C(=S)SSC1CCCCC1 assay_endpoint=MIC reported="> 32 µM"
compound=CCCCSSC(=S)N(CC)CC assay_endpoint=MIC reported="> 32 µM"
compound=CCN(CC)C(=S)SSC(C)C assay_endpoint=MIC reported="> 32 µM"
compound=CCN(CC)C(=S)SSCc1ccccc1 assay_endpoint=MIC reported="32 µM"
compound=CCN(CC)C(=S)SSC1CCCC1 assay_endpoint=MIC reported="> 32 µM"
compound=CCCCCCCCCSSC(=S)N(CC)CC assay_endpoint=MIC reported="8 µM"
compound="CN[C@H](CC(C)C)C(=O)N[C@H]1C(=O)N[C@@H](CC(N)=O)C(=O)N[C@H]2C(=O)N[C@H]3C(=O)N[C@H](C(=O)N[C@H](C(=O)O)c4cc(O)cc(O)c4-c4cc3ccc4O)[C@H](O)c3ccc(c(Cl)c3)Oc3cc2cc(c3O[C@@H]2O[C@H](CO)[C@@H](O)[C@H](O)[C@H]2O[C@H]2C[C@](C)(N)[C@H](O)[C@H](C)O2)Oc2ccc(cc2Cl)[C@H]1O [VANCOMYCIN]" assay_endpoint=MIC reported="> 32 µM"
compound=CCCCCCCCSSC(=S)N(CC)CC assay_endpoint=MIC reported="8 µM"
compound=CCN(CC)C(=S)SSC assay_endpoint=MIC reported="> 32 µM"
compound=CCCSSC(=S)N(CC)CC assay_endpoint=MIC reported="> 32 µM"
compound=CCCCCSSC(=S)N(CC)CC assay_endpoint=MIC reported="> 32 µM"
compound=CCSSC(=S)N(CC)CC assay_endpoint=MIC reported="> 32 µM"
compound=CCN(CC)C(=S)SSCC(C)C assay_endpoint=MIC reported="> 32 µM"
compound=CCN(CC)C(=S)SSc1ccccc1 assay_endpoint=MIC reported="> 32 µM"
compound=CCCCCCCCCCSSC(=S)N(CC)CC assay_endpoint=MIC reported="16 µM"
compound=CCN(CC)C(=S)SSC(=S)N(CC)CC assay_endpoint=MIC reported="> 32 µM"
compound=CCCCCCCSSC(=S)N(CC)CC assay_endpoint=MIC reported="8 µM"

====

Here, each record is paired with measured MIC data.
system: Staphylococcus epidermidis; test: Antibacterial activity against vancomycin-intermediate resistant Staphylococcus epidermidis NRS6 after 20 hrs by broth microdilution assay; type: functional; conditions: NRS6, 20 h
assay endpoint: MIC

molecule_smiles=CCSSC(=S)N(CC)CC assay_endpoint=MIC reported="32 µM"
molecule_smiles=CCCCCCCCSSC(=S)N(CC)CC assay_endpoint=MIC reported="4 µM"
molecule_smiles=CCN(CC)C(=S)SSc1ccccc1 assay_endpoint=MIC reported="16 µM"

====

Here, each record is paired with measured MIC data.
test system: Yersinia pseudotuberculosis; assay: Antibacterial activity against Yersinia pseudotuberculosis P61 after 20 hrs by broth microdilution assay; format: functional; settings: P61, 20 h
assay endpoint: MIC

compound="O=C(O)c1cn(C2CC2)c2cc(N3CCNCC3)c(F)cc2c1=O [CIPROFLOXACIN]" measured_target="Yersinia pseudotuberculosis" reported="≤ 0.5 µM"
compound="CCCCCCSSC(=S)N(CC)CC [DIETHYLCARBAMO(DITHIOPEROXO)THIOATE]" measured_target="Yersinia pseudotuberculosis" reported="> 32 µM"
compound=CCCCCCCSSC(=S)N(CC)CC measured_target="Yersinia pseudotuberculosis" reported="> 32 µM"
compound=CCN(CC)C(=S)SSC(=S)N(CC)CC measured_target="Yersinia pseudotuberculosis" reported="> 32 µM"
compound=CCCCCSSC(=S)N(CC)CC measured_target="Yersinia pseudotuberculosis" reported="> 32 µM"
compound=CCN(CC)C(=S)SSCc1ccccc1 measured_target="Yersinia pseudotuberculosis" reported="> 32 µM"
